What follows is a record of IC50 for human full length PKCE enzyme (Homo sapiens, UniProt Q02156).

compound: NC(=O)c1ccc(N2CCCCC2)c(NC(=O)c2nccnc2N)c1
IC50: 1 to 10 µM

compound: COc1ccc(-c2cnc(N)c(C(=O)Nc3cnccc3N3CCCC(N)C3)n2)cc1 (stereo not drawn)
IC50: < 1 µM

compound: Nc1ncc(-c2ccoc2)nc1C(=O)Nc1ccccc1N1CCNCC1
IC50: < 1 µM

compound: NCC1CCCN(c2ccncc2NC(=O)c2nc(Cl)c(N)nc2N)C1 (stereo not drawn)
IC50: 1 to 10 µM

compound: Nc1ncc(-c2ccccc2Oc2ccccc2)nc1C(=O)Nc1ccccc1N1CCNCC1
IC50: 1 to 10 µM

compound: COc1ccc(N2CCC(N)CC2)c(NC(=O)c2nc(Br)cnc2N)c1
IC50: < 1 µM

compound: CC(=O)NC1CCCN(c2ccncc2NC(=O)c2nc(Br)cnc2N)C1 (stereo not drawn)
IC50: 1 to 10 µM

compound: NC(=O)c1cccc(-c2cnc(N)c(C(=O)Nc3ccccc3N3CCCC(N)C3)n2)c1 (stereo not drawn)
IC50: < 1 µM

Please find the next compound below.
Problem: State the recorded IC50 for this entry: COc1ccc(F)cc1-c1ccc(N)c(C(=O)Nc2cnccc2N2CCC[C@H](N)C2)n1
Solution: 10 to 25 µM

Reference source: patent US20140249135A1
